- MEASUREMENT_PROTOCOL: Biodistribution, CHO-K1-GRPR + CHO-K1-PSMA dual xenograft mice
- TEST_PARAMETERS: female, NOD SCID, mouse, stomach (empty), intravenous, 0.37 nmol, total radioactivity, Biodistribution: Stomach (empty), Mouse #5; single tracer; dual xenograft; 24.2 h p.i.; 0.37 nmol
PARAMETER_MEASURED: tissue uptake at 24.2 h (%ID/g)
Write down the numeric answer in %ID/g and omit the unit.

What value of measured tissue uptake at 24.2 h is listed for CC(C)C[C@H](NC(=O)C[C@H](O)[C@H](CC(C)C)NC(=O)[C@H](Cc1c[nH]cn1)NC(=O)CNC(=O)[C@@H](NC(=O)[C@H](C)NC(=O)[C@H](Cc1c[nH]c2ccccc12)NC(=O)[C@H](CCC(N)=O)NC(=O)[C@@H](Cc1ccccc1)NC(=O)CN1CCC(NC(=O)CN2CCN(CC(=O)O)CCN(CC(=O)O)CCN(CC(=O)O)CC2)CC1)C(C)C)C(N)=O [[^111In]In-RM2, metal not drawn] ?
0.04

---

- MEASUREMENT_PROTOCOL: Biodistribution, CHO-K1-GRPR + CHO-K1-PSMA dual xenograft mice
- TEST_PARAMETERS: female, NOD SCID, mouse, bone, intravenous, 0.37 nmol, total radioactivity, Biodistribution: Bone, Mouse #5; single tracer; dual xenograft; 24.2 h p.i.; 0.37 nmol
PARAMETER_MEASURED: tissue uptake at 24.2 h

Record request: tissue uptake at 24.2 h value, item CC(C)C[C@H](NC(=O)C[C@H](O)[C@H](CC(C)C)NC(=O)[C@H](Cc1c[nH]cn1)NC(=O)CNC(=O)[C@@H](NC(=O)[C@H](C)NC(=O)[C@H](Cc1c[nH]c2ccccc12)NC(=O)[C@H](CCC(N)=O)NC(=O)[C@@H](Cc1ccccc1)NC(=O)CN1CCC(NC(=O)CN2CCN(CC(=O)O)CCN(CC(=O)O)CCN(CC(=O)O)CC2)CC1)C(C)C)C(N)=O [[^111In]In-RM2, metal not drawn]
0.04 %ID/g

---

- MEASUREMENT_PROTOCOL: Biodistribution, CHO-K1-GRPR + CHO-K1-PSMA dual xenograft mice
- TEST_PARAMETERS: female, NOD SCID, mouse, CHO-K1-PSMA tumor, intravenous, 1.41 nmol, total radioactivity, Biodistribution: CHO-K1-PSMA Tumor, Mouse #7; single tracer; dual xenograft; 24.2 h p.i.; 1.41 nmol
PARAMETER_MEASURED: tissue uptake at 24.2 h
Returns: string containing the numeric result and its unit.

// lookup tissue uptake at 24.2 h for CC(C)C[C@H](NC(=O)C[C@H](O)[C@H](CC(C)C)NC(=O)[C@H](Cc1c[nH]cn1)NC(=O)CNC(=O)[C@@H](NC(=O)[C@H](C)NC(=O)[C@H](Cc1c[nH]c2ccccc12)NC(=O)[C@H](CCC(N)=O)NC(=O)[C@@H](Cc1ccccc1)NC(=O)CN1CCC(NC(=O)CN2CCN(CC(=O)O)CCN(CC(=O)O)CCN(CC(=O)O)CC2)CC1)C(C)C)C(N)=O [[^111In]In-RM2, metal not drawn]
0.08 %ID/g

---

- MEASUREMENT_PROTOCOL: Biodistribution, PC-3 xenograft mice
- Type: in vivo, NOD SCID mice
- TEST_PARAMETERS: female, NOD SCID, spleen, intravenous, total radioactivity; Mouse #2; single tracer; PC-3 xenograft; 7.3 h p.i.; 1.43 nmol; read-out: Biodistribution: Spleen
PARAMETER_MEASURED: tissue uptake at 7.3 h (%ID/g)
Report as a plain number; the unit %ID/g is understood.

I have this compound here, CC(C)C[C@H](NC(=O)C[C@H](O)[C@H](CC(C)C)NC(=O)[C@H](Cc1c[nH]cn1)NC(=O)CNC(=O)[C@@H](NC(=O)[C@H](C)NC(=O)[C@H](Cc1c[nH]c2ccccc12)NC(=O)[C@H](CCC(N)=O)NC(=O)[C@@H](Cc1ccccc1)NC(=O)CN1CCC(NC(=O)CN2CCN(CC(=O)O)CCN(CC(=O)O)CCN(CC(=O)O)CC2)CC1)C(C)C)C(N)=O [[^111In]In-RM2, metal not drawn] , and I need its recorded tissue uptake at 7.3 h.
0.13
